For each entry below, report its Assay (%) value.
Assay: Stability of salt forms under accelerated conditions of heat and humidity
Format: physicochemical
Conditions: 80° C., 14 D
Answers are plain numbers, in %.

# count of solved cases: 2
compound	Assay (%)
CC[C@H](C(=O)N1CCCC[C@H]1C(=O)O[C@H](CCc1ccc(OC)c(OC)c1)c1cccc(OCCN(C)CCN(C)CCOc2cccc([C@@H](CCc3ccc(OC)c(OC)c3)OC(=O)[C@@H]3CCCCN3C(=O)[C@@H](CC)c3cc(OC)c(OC)c(OC)c3)c2)c1)c1cc(OC)c(OC)c(OC)c1.O=P(O)(O)O	93.3
CC[C@H](C(=O)N1CCCC[C@H]1C(=O)O[C@H](CCc1ccc(OC)c(OC)c1)c1cccc(OCCN(C)CCN(C)CCOc2cccc([C@@H](CCc3ccc(OC)c(OC)c3)OC(=O)[C@@H]3CCCCN3C(=O)[C@@H](CC)c3cc(OC)c(OC)c(OC)c3)c2)c1)c1cc(OC)c(OC)c(OC)c1.O=S(=O)(O)c1ccccc1	90.6

I need Assay (%) for every entry listed below, if you could help.
1. CC[C@H](C(=O)N1CCCC[C@H]1C(=O)O[C@H](CCc1ccc(OC)c(OC)c1)c1cccc(OCCN(C)CCN(C)CCOc2cccc([C@@H](CCc3ccc(OC)c(OC)c3)OC(=O)[C@@H]3CCCCN3C(=O)[C@@H](CC)c3cc(OC)c(OC)c(OC)c3)c2)c1)c1cc(OC)c(OC)c(OC)c1.O=S(=O)(O)O [Sulphate]
2. CC[C@H](C(=O)N1CCCC[C@H]1C(=O)O[C@H](CCc1ccc(OC)c(OC)c1)c1cccc(OCCN(C)CCN(C)CCOc2cccc([C@@H](CCc3ccc(OC)c(OC)c3)OC(=O)[C@@H]3CCCCN3C(=O)[C@@H](CC)c3cc(OC)c(OC)c(OC)c3)c2)c1)c1cc(OC)c(OC)c(OC)c1.O=C(O)/C=C/C(=O)O [Fumarate]
3. CC[C@H](C(=O)N1CCCC[C@H]1C(=O)O[C@H](CCc1ccc(OC)c(OC)c1)c1cccc(OCCN(C)CCN(C)CCOc2cccc([C@@H](CCc3ccc(OC)c(OC)c3)OC(=O)[C@@H]3CCCCN3C(=O)[C@@H](CC)c3cc(OC)c(OC)c(OC)c3)c2)c1)c1cc(OC)c(OC)c(OC)c1.Cl

Output line:
1: 94.6; 2: 95.8; 3: 94.8
